LD50 reference
# EXPERIMENT: Toxicity, LD-50 mice (Table VI)
# CONDITION_DETAILS: mouse, in vivo

{"columns": ["MOLECULE", "LD50"],
 "data": [
  ["CCCC[N+](CC)(CC)CCOc1ccc(C(C)(C)CC)cc1Cc1ccc(Cl)cc1Cl.[Br-] [Example 23]", "> 1000 mg/kg"],
  ["CCCCCCCCCCCCCCCC[N+](C)(C)C [Example A-2, cetrymonium chloride, reference compound]", "750 mg/kg"],
  ["CCCCc1ccc(OCC[N+](CC)(CC)Cc2ccccc2)c(Cc2ccc(Cl)cc2Cl)c1 [Example 31]", "> 1000 mg/kg"],
  ["CC[N+](CC)(CCOc1ccc(C(C)(C)C)cc1Cc1ccc(Cl)cc1Cl)Cc1ccccc1 [Example 29]", "> 1000 mg/kg"],
  ["CC[N+](CC)(CCOc1ccc(C)cc1Cc1ccc(Cl)cc1Cl)Cc1ccccc1 [Example 26]", "> 1000 mg/kg"],
  ["CCc1ccc(OCC[N+](CC)(CC)Cc2ccccc2)c(Cc2ccc(Cl)cc2Cl)c1 [Example 27]", "850 mg/kg"],
  ["CCC(C)(C)c1ccc(OCC[N+](CC)(CC)Cc2ccccc2)c(Cc2ccc(Cl)cc2Cl)c1 [Example 30]", "> 1000 mg/kg"]
]}

###

# System: Candida albicans CIP 1180
# EXPERIMENT: Minimal inhibiting concentration (MIC), fungus strain (Table IV)
# Type: cell-based
# CONDITION_DETAILS: Candida albicans, CIP1180, Candida albicans CIP 1180
# Text: A certain number of compounds according to the invention are given non-restrictively by way of illustration in tables I, II and III hereinafter. The minimal inhibiting concentrations (MIC) of these compounds vis-a-vis a Gram+bacteria (Staphylococcus aureus London) a Gram-bacteria (Escherichia coli) and a fungus (Candida albicans) are given hereinafter in table IV. […]
# if measured MIC < 4 µg/mL: true (1)  # else: false (0)

{"columns": ["COMPOUND_STRUCTURE_STRING", "GROUP"],
 "data": [
  ["CCN(CC)CCOc1ccc(C(C)C)cc1Cc1ccc(Cl)cc1Cl", "false (0)"],
  ["CCCCCCc1ccc(OCC[N+](CC)(CC)Cc2ccccc2)c(Cc2ccc(Cl)cc2Cl)c1", "true (1)"],
  ["CCCC[N+](CC)(CC)CCOc1ccc(C(C)(C)CC)cc1Cc1ccc(Cl)cc1Cl.[Br-]", "true (1)"],
  ["CCCCCCc1ccc(OCCN(CC)CC)c(Cc2ccc(Cl)cc2Cl)c1", "false (0)"]
]}

###

# Test system: Candida albicans CIP 1180
# EXPERIMENT: Minimal inhibiting concentration (MIC), fungus strain (Table IV)
# Assay type: cell-based
# CONDITION_DETAILS: Candida albicans, CIP1180, Candida albicans CIP 1180

{"columns": ["COMPOUND_STRUCTURE_STRING", "MIC, µg/mL"],
 "data": [
  ["CCN(CC)CCOc1ccc(C(C)(C)CC)cc1Cc1ccc(Cl)cc1Cl.Cl", 4],
  ["CC[N+](CC)(CCOc1ccc(C(C)(C)CC(C)(C)C)cc1Cc1ccc(Cl)cc1Cl)Cc1ccccc1", 1],
  ["CC[N+](C)(CC)CCOc1ccc(C(C)(C)CC(C)(C)C)cc1Cc1ccc(Cl)cc1Cl", 0.25],
  ["CCC(C)(C)c1ccc(OCC[N+](C)(CC)CC)c(Cc2ccc(Cl)cc2Cl)c1.[I-]", 0.5],
  ["CCN(CC)CCOc1ccc(C(C)(C)CC)cc1Cc1ccc(Cl)cc1Cl", 16],
  ["CCc1ccc(OCC[N+](CC)(CC)Cc2ccccc2)c(Cc2ccc(Cl)cc2Cl)c1", 0.5],
  ["CCCCc1ccc(OCC[N+](CC)(CC)Cc2ccccc2)c(Cc2ccc(Cl)cc2Cl)c1", 0.125],
  ["CC[N+](CC)(CCOc1ccc(C(C)C)cc1Cc1ccc(Cl)cc1Cl)Cc1ccccc1", 0.25]
]}

###

# Test system: Escherichia coli CIP 54.8
# EXPERIMENT: Minimal inhibiting concentration (MIC), Gram- strain (Table IV)
# Format: cell-based
# CONDITION_DETAILS: CIP54
TEST_READOUT: MIC (mg/L)

{"columns": ["COMPOUND_STRUCTURE_STRING", "MEASUREMENT_TARGET", "NUMERIC_RESULT"],
 "data": [
  ["CCCCCCc1ccc(OCC[N+](CC)(CC)Cc2ccccc2)c(Cc2ccc(Cl)cc2Cl)c1", "Escherichia coli CIP 54.8", 16],
  ["CC(C)c1ccc(OCCN(C)C)c(Cc2ccc(Cl)c(Cl)c2)c1", "Escherichia coli CIP 54.8", 64],
  ["CCCCc1ccc(OCCN(CC)CC)c(Cc2ccc(Cl)cc2Cl)c1", "Escherichia coli CIP 54.8", 64],
  ["CCCC[N+](CC)(CC)CCOc1ccc(C(C)(C)CC)cc1Cc1ccc(Cl)cc1Cl.[Br-]", "Escherichia coli CIP 54.8", 4],
  ["CCN(CC)CCOc1ccc(C(C)(C)CC)cc1Cc1ccc(Cl)cc1Cl.Cl", "Escherichia coli CIP 54.8", 64],
  ["CC[N+](CC)(CCOc1ccc(C)cc1Cc1ccc(Cl)cc1Cl)Cc1ccccc1", "Escherichia coli CIP 54.8", 32],
  ["CCCC[N+](CC)(CC)CCOc1ccc(C(C)(C)CC(C)(C)C)cc1Cc1ccc(Cl)cc1Cl", "Escherichia coli CIP 54.8", 16],
  ["CCc1ccc(OCC[N+](CC)(CC)Cc2ccccc2)c(Cc2ccc(Cl)cc2Cl)c1", "Escherichia coli CIP 54.8", 8],
  ["CC[N+](CC)(CCOc1ccc(C(C)C)cc1Cc1ccc(Cl)cc1Cl)Cc1ccccc1", "Escherichia coli CIP 54.8", 8],
  ["CCC(C)(C)c1ccc(OCC[N+](CC)(CC)Cc2ccccc2)c(Cc2ccc(Cl)cc2Cl)c1", "Escherichia coli CIP 54.8", 4],
  ["CCC(C)(C)c1ccc(OCC[N+](C)(CC)CC)c(Cc2ccc(Cl)cc2Cl)c1.[I-]", "Escherichia coli CIP 54.8", 8],
  ["CCN(CC)CCOc1ccc(C)cc1Cc1ccc(Cl)cc1Cl", "Escherichia coli CIP 54.8", 50],
  ["CC[N+](C)(CC)CCOc1ccc(C(C)(C)CC(C)(C)C)cc1Cc1ccc(Cl)cc1Cl", "Escherichia coli CIP 54.8", 64],
  ["CCCCc1ccc(OCC[N+](CC)(CC)Cc2ccccc2)c(Cc2ccc(Cl)cc2Cl)c1", "Escherichia coli CIP 54.8", 4],
  ["CCCCCCc1ccc(OCCN(CC)CC)c(Cc2ccc(Cl)cc2Cl)c1", "Escherichia coli CIP 54.8", 64],
  ["CC[N+](CC)(CCOc1ccc(C(C)(C)C)cc1Cc1ccc(Cl)cc1Cl)Cc1ccccc1", "Escherichia coli CIP 54.8", 4]
]}

###

Form field: MIC (one value per entry).
# Test system: Candida albicans CIP 1180
# EXPERIMENT: Minimal inhibiting concentration (MIC), fungus strain (Table IV)
# Format: cell-based
# CONDITION_DETAILS: Candida albicans, CIP1180, Candida albicans CIP 1180
TEST_READOUT: MIC

{"columns": ["COMPOUND_STRUCTURE_STRING", "TEST_READOUT", "RESULT"],
 "data": [
  ["CCC(C)(C)c1ccc(OCC[N+](CC)(CC)Cc2ccccc2)c(Cc2ccc(Cl)cc2Cl)c1", "MIC", "0.25 µg/mL"],
  ["CCCC[N+](CC)(CC)CCOc1ccc(C(C)(C)CC(C)(C)C)cc1Cc1ccc(Cl)cc1Cl", "MIC", "1 µg/mL"],
  ["CCCCc1ccc(OCCN(CC)CC)c(Cc2ccc(Cl)cc2Cl)c1", "MIC", "64 µg/mL"],
  ["CC[N+](CC)(CCOc1ccc(C(C)(C)C)cc1Cc1ccc(Cl)cc1Cl)Cc1ccccc1", "MIC", "0.125 µg/mL"]
]}
